# credit: patent US10759766B2

# System: A375 cells
# test: Inhibition of cancer cell growth, MTT assay, A375
# Assay type: cell-based
# experimental_conditions: Homo sapiens, A-375, 72 h exposure
# reported IC50; entries follow
parameter_measured: IC50

{"chemical_structure": "O=C(Nc1cncc(Cl)c1)Nc1ccc(F)c(C(=O)c2ccc3ncc(N4CCOCC4)nc3c2)c1", "value": "< 1000 nM"}
{"chemical_structure": "O=C(Nc1ccc(F)c(C(=O)c2ccc3nccnc3c2)c1)Nc1ccc(Cl)c(C(F)(F)F)c1", "value": "< 1000 nM"}
{"chemical_structure": "O=C(Nc1cccc(F)c1)Nc1cccc(C(=O)c2ccc3nccnc3c2)c1", "value": "1000 to 5000 nM"}
{"chemical_structure": "Cn1cc(-c2cnc3ccc(C(=O)c4cccc(NC(=O)c5ccc(Cl)c(C(F)(F)F)c5)c4)cc3n2)cn1", "value": "1000 to 5000 nM"}
{"chemical_structure": "O=C(Nc1cccc(Cl)c1)Nc1cccc(C(=O)c2ccc3nccnc3c2)c1", "value": "< 1000 nM"}
{"chemical_structure": "O=C(Nc1cc(F)cc(C(=O)c2ccc3ncc(N4CCOCC4)nc3c2)c1)c1cccc(C(F)(F)F)c1", "value": "< 1000 nM"}
{"chemical_structure": "O=C(Nc1cccc(C(F)(F)F)c1)Nc1cc(F)c(F)c(C(=O)c2ccc3nccnc3c2)c1", "value": "1000 to 5000 nM"}

====

# System: A375 cells
# test: Inhibition of cancer cell growth, MTT assay, A375
# Assay type: cell-based
# experimental_conditions: Homo sapiens, A-375, 72 h exposure
pIC50: −log10 of the molar value.

{"chemical_structure": "O=C(Nc1cncc(F)c1)Nc1ccc(F)c(C(=O)c2ccc3ncc(N4CCOCC4)nc3c2)c1", "measured_on": "A375 cells", "pIC50": "< 5.30"}
{"chemical_structure": "O=C(Nc1cc(F)cc(C(=O)c2ccc3ncc(N4CCOCC4)nc3c2)c1)c1ccc(Cl)c(C(F)(F)F)c1", "measured_on": "A375 cells", "pIC50": "5.30 to 6.00"}
{"chemical_structure": "O=C(Nc1cccc(C(=O)c2ccc3ncc(-c4cn[nH]c4)nc3c2)c1)c1ccc(Cl)c(C(F)(F)F)c1", "measured_on": "A375 cells", "pIC50": "> 6.00"}
{"chemical_structure": "O=C(Nc1cc(F)c(F)c(C(=O)c2ccc3ncc(N4CCOCC4)nc3c2)c1F)c1ccc(Cl)c(C(F)(F)F)c1", "measured_on": "A375 cells", "pIC50": "< 5.30"}
{"chemical_structure": "O=C(Nc1ccc(F)c(C(=O)c2ccc3ncc(N4CCOCC4)nc3c2)c1)c1ccc(Cl)c(C(F)(F)F)c1", "measured_on": "A375 cells", "pIC50": "> 6.00"}
{"chemical_structure": "O=C(Nc1cc(F)cc(C(=O)c2ccc3nccnc3c2)c1)c1cccc(C(F)(F)F)c1", "measured_on": "A375 cells", "pIC50": "5.30 to 6.00"}
{"chemical_structure": "O=C(Nc1cc(F)cc(C(=O)c2ccc3ncc(N4CCOCC4)nc3c2)c1)Nc1ccc(Cl)c(C(F)(F)F)c1", "measured_on": "A375 cells", "pIC50": "> 6.00"}

====

Entries and their measured pIC50 follow.
# measured_on: BRAF V600E (Homo sapiens (Human), UniProt P15056, V600E)
# Sequence (P15056 whole entry V600E): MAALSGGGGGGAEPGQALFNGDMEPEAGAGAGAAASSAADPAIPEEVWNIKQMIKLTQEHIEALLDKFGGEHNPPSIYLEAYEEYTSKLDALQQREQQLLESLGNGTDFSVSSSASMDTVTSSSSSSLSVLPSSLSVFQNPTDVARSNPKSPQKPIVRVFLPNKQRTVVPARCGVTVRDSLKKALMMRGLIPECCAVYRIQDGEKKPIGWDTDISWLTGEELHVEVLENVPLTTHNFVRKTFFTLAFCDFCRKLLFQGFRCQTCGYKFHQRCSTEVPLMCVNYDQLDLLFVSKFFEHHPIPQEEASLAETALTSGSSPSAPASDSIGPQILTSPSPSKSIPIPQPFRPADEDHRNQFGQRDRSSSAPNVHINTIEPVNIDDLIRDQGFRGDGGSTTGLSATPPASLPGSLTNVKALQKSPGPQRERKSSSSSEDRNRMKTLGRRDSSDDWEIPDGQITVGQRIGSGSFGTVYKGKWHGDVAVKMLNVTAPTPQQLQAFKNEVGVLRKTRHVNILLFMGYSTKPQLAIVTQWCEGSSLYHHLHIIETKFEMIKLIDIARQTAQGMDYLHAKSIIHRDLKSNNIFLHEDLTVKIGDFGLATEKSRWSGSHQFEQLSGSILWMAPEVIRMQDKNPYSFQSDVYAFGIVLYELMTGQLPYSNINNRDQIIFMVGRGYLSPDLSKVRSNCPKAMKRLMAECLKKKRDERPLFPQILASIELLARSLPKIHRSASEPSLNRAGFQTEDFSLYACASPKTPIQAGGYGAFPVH
# test: Z′-LYTE kinase inhibition assay (Invitrogen), BRAF V600E
# experimental_conditions: Z′-LYTE method; read-out: IC50 against BRAF V600E
pIC50: −log10 of the molar value.

{"chemical_structure": "O=C(Nc1cc(F)c(F)c(C(=O)c2ccc3nccnc3c2)c1F)c1cccc(C(F)(F)F)c1", "pIC50": "< 7.00"}
{"chemical_structure": "O=C(Nc1cc(F)c(F)c(C(=O)c2ccc3ncc(N4CCOCC4)nc3c2)c1)c1ccc(Cl)c(C(F)(F)F)c1", "pIC50": "< 7.00"}
{"chemical_structure": "Cn1cc(-c2cnc3ccc(C(=O)c4cccc(NC(=O)Nc5ccc(Cl)c(C(F)(F)F)c5)c4)cc3n2)cn1", "pIC50": "> 7.00"}
{"chemical_structure": "O=C(Nc1cc(F)c(F)c(C(=O)c2ccc3ncc(N4CCOCC4)nc3c2)c1)c1cccc(C(F)(F)F)c1", "pIC50": "> 7.00"}

====

Form field: inhibition at 1 µM (one value per entry).
# measured_on: UniProt P35968
# Sequence (P35968 20-1356): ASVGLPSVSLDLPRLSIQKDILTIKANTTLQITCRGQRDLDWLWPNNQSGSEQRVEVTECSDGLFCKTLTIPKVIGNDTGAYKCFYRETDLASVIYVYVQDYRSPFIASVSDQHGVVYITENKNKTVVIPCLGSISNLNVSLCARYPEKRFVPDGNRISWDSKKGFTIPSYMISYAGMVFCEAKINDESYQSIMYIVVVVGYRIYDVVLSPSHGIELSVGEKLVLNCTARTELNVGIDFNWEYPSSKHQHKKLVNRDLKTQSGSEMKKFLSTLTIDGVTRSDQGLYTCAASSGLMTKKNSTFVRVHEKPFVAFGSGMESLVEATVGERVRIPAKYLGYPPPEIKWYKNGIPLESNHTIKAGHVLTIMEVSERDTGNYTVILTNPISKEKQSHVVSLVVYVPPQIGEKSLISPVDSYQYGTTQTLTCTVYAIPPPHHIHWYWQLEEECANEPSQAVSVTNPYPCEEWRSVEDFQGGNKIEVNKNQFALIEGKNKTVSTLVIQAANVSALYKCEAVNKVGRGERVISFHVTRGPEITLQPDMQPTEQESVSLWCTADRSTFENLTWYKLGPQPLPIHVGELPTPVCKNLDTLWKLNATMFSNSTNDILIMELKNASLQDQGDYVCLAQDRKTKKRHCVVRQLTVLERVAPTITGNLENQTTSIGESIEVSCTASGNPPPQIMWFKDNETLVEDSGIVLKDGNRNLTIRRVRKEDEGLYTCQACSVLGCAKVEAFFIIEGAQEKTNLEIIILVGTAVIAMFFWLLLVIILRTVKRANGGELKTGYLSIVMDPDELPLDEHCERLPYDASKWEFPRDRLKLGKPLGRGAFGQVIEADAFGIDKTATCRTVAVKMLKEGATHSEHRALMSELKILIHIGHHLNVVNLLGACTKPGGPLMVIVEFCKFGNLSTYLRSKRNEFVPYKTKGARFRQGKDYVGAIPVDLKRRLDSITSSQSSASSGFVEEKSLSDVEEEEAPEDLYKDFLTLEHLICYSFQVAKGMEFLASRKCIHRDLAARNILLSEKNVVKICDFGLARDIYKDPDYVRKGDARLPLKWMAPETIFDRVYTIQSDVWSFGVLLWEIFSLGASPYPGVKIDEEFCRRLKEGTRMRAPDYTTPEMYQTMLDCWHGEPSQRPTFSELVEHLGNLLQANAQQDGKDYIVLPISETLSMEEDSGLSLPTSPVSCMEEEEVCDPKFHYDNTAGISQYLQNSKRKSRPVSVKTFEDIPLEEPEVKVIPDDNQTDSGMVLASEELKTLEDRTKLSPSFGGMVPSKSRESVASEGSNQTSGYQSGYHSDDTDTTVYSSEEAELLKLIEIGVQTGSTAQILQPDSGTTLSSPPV
# test: Z′-LYTE kinase inhibition assay (Invitrogen), KDR
# Assay type: biochemical
# experimental_conditions: 1 μM compound, Z′-LYTE method; read-out: % inhibition at 1 μM against KDR

{"chemical_structure": "Cn1cc(-c2cnc3ccc(C(=O)c4cccc(NC(=O)c5ccc(Cl)c(C(F)(F)F)c5)c4)cc3n2)cn1", "inhibition at 1 µM": "> 89%"}
{"chemical_structure": "O=C(Nc1cc(F)cc(C(=O)c2ccc3ncc(N4CCOCC4)nc3c2)c1)c1cccc(C(F)(F)F)c1", "inhibition at 1 µM": "70 to 89%"}
{"chemical_structure": "O=C(Nc1cccc(C(F)(F)F)c1)Nc1ccc(F)c(C(=O)c2ccc3nccnc3c2)c1", "inhibition at 1 µM": "70 to 89%"}
{"chemical_structure": "O=C(Nc1cc(F)cc(Cl)c1)Nc1ccc(F)c(C(=O)c2ccc3nccnc3c2)c1", "inhibition at 1 µM": "70 to 89%"}
{"chemical_structure": "O=C(Nc1cc(F)cc(C(=O)c2ccc3nccnc3c2)c1)Nc1cccc(C(F)(F)F)c1", "inhibition at 1 µM": "70 to 89%"}
{"chemical_structure": "O=C(Nc1ccc(Cl)c(C(F)(F)F)c1)Nc1cc(F)c(F)c(C(=O)c2ccc3nccnc3c2)c1F", "inhibition at 1 µM": "< 70%"}
{"chemical_structure": "O=C(Nc1cccc(C(=O)c2ccc3ncc(N4CCCC4)nc3c2)c1)Nc1ccc(Cl)c(C(F)(F)F)c1", "inhibition at 1 µM": "> 89%"}

====

inhibition at 1 µM reference
# measured_on: BRAF V600E (Homo sapiens (Human), UniProt P15056, V600E)
# test: Z′-LYTE kinase inhibition assay (Invitrogen), BRAF V600E
# Format: biochemical
# experimental_conditions: 1 μM compound, Z′-LYTE method; read-out: % inhibition at 1 μM against BRAF V600E
parameter_measured: inhibition at 1 µM

{"chemical_structure": "O=C(Nc1ccc(F)cc1)Nc1cc(F)cc(C(=O)c2ccc3nccnc3c2)c1", "value": "> 89%"}
{"chemical_structure": "O=C(Nc1ccc(F)cc1)Nc1cc(F)c(F)c(C(=O)c2ccc3ncc(N4CCOCC4)nc3c2)c1", "value": "> 89%"}
{"chemical_structure": "O=C(Nc1cccc(F)c1)Nc1cccc(C(=O)c2ccc3nccnc3c2)c1", "value": "> 89%"}
{"chemical_structure": "O=C(Nc1cc(F)cc(Cl)c1)Nc1ccc(F)c(C(=O)c2ccc3ncc(N4CCOCC4)nc3c2)c1", "value": "> 89%"}
{"chemical_structure": "O=C(Nc1ccc(F)c(C(=O)c2ccc3nccnc3c2)c1)Nc1ccc(Cl)c(C(F)(F)F)c1", "value": "> 89%"}
{"chemical_structure": "O=C(Nc1cc(F)cc(C(=O)c2ccc3nccnc3c2)c1)Nc1ccc(Cl)c(C(F)(F)F)c1", "value": "70 to 89%"}
{"chemical_structure": "O=C(Nc1cccc(C(=O)c2ccc3ncc(N4CCCC4)nc3c2)c1)Nc1cccc(C(F)(F)F)c1", "value": "> 89%"}
{"chemical_structure": "O=C(Nc1cccc(C(F)(F)F)c1)Nc1cc(F)c(F)c(C(=O)c2ccc3nccnc3c2)c1", "value": "> 89%"}
{"chemical_structure": "O=C(Nc1cccc(C(F)(F)F)c1)Nc1ccc(F)c(C(=O)c2ccc3ncc(N4CCOCC4)nc3c2)c1", "value": "70 to 89%"}
{"chemical_structure": "O=C(Nc1cc(F)cc(C(=O)c2ccc3ncc(N4CCOCC4)nc3c2)c1)Nc1ccc(Cl)c(F)c1", "value": "> 89%"}
{"chemical_structure": "O=C(Nc1cccc(C(F)(F)F)c1)Nc1ccc(F)c(C(=O)c2ccc3ncc(N4CCNCC4)nc3c2)c1", "value": "> 89%"}
{"chemical_structure": "O=C(Nc1ccc(F)c(C(=O)c2ccc3nccnc3c2)c1)c1cccc(F)c1", "value": "> 89%"}
{"chemical_structure": "O=C(Nc1ccc(F)c(C(=O)c2ccc3ncc(N4CCOCC4)nc3c2)c1)c1cccc(C(F)(F)F)c1", "value": "> 89%"}
{"chemical_structure": "O=C(Nc1ccc(F)c(C(=O)c2ccc3ncc(N4CCOCC4)nc3c2)c1)c1cccc(F)c1", "value": "> 89%"}
{"chemical_structure": "O=C(Nc1cc(F)c(F)c(C(=O)c2ccc3nccnc3c2)c1)c1cccc(C(F)(F)F)c1", "value": "> 89%"}
{"chemical_structure": "NCCNc1cnc2ccc(C(=O)c3cc(NC(=O)Nc4ccc(F)cc4)ccc3F)cc2n1", "value": "> 89%"}
{"chemical_structure": "O=C(Nc1cccc(C(F)(F)F)c1)Nc1ccc(F)c(C(=O)c2ccc3nccnc3c2)c1F", "value": "70 to 89%"}
{"chemical_structure": "O=C(Nc1cc(F)c(F)c(C(=O)c2ccc3ncc(N4CCOCC4)nc3c2)c1)c1cccc(F)c1", "value": "> 89%"}
{"chemical_structure": "O=C(Nc1cccc(C(=O)c2ccc3nccnc3c2)c1)c1cccc(F)c1", "value": "70 to 89%"}
{"chemical_structure": "O=C(Nc1cccc(Cl)c1)Nc1cccc(C(=O)c2ccc3nccnc3c2)c1", "value": "> 89%"}
{"chemical_structure": "O=C(Nc1ccc(F)c(F)c1)Nc1ccc(F)c(C(=O)c2ccc3ncc(NCCO)nc3c2)c1", "value": "> 89%"}
{"chemical_structure": "O=C(Nc1cc(F)cc(F)c1)Nc1ccc(F)c(C(=O)c2ccc3ncc(N4CCNCC4)nc3c2)c1", "value": "> 89%"}
{"chemical_structure": "O=C(Nc1ccc(Cl)c(C(F)(F)F)c1)Nc1cc(F)c(F)c(C(=O)c2ccc3ncc(N4CCOCC4)nc3c2)c1F", "value": "< 70%"}
{"chemical_structure": "COc1cnc2ccc(C(=O)c3cc(NC(=O)Nc4ccc(F)cc4)ccc3F)cc2n1", "value": "> 89%"}
{"chemical_structure": "O=C(Nc1cc(F)c(F)c(C(=O)c2ccc3ncc(N4CCOCC4)nc3c2)c1)c1cccc(C(F)(F)F)c1", "value": "> 89%"}
{"chemical_structure": "O=C(Nc1cccc(Cl)c1)Nc1ccc(F)c(C(=O)c2ccc3ncc(N4CCOCC4)nc3c2)c1", "value": "> 89%"}
{"chemical_structure": "O=C(Nc1cc(F)cc(F)c1)Nc1cc(F)c(F)c(C(=O)c2ccc3ncc(N4CCOCC4)nc3c2)c1", "value": "> 89%"}
{"chemical_structure": "O=C(Nc1cc(F)cc(C(=O)c2ccc3ncc(N4CCOCC4)nc3c2)c1)c1cccc(F)c1", "value": "70 to 89%"}
{"chemical_structure": "O=C(Nc1cccc(F)c1)Nc1ccc(F)c(C(=O)c2ccc3ncc(N4CCNCC4)nc3c2)c1", "value": "> 89%"}
{"chemical_structure": "O=C(Nc1ccc(F)c(C(=O)c2ccc3nccnc3c2)c1)c1ccc(Cl)c(C(F)(F)F)c1", "value": "> 89%"}
